For each record, write down the corresponding Enzyme Activity Endpoint Assay: IgG.
- SYSTEM: pooled human IgG (human IgG1,2,3 and 4)
Field: numeric (ng/µL). Do not append units.

Would you mind telling me what Enzyme Activity Endpoint Assay: IgG value was observed for PRT-175 (protein) MANQEIRYSEVTPYHITSVWTKGVTPPTDFTQGEDVFHAPYKANQGWYDITKTFNGKDDLLCGAATAGNMLHWWFDQNKTQIERYLKKHPEKQKINFNGEQMFDVKEAIDTKNSQTNSELFNYFKEKAFPYLSTKHLGVFPDHVIDMFINGYRLSLTNHGPTPVKRQSKDPRGGIFDAVFTRGDQSKLLTSRHDFKEKTLNEISQLIKQELTEGKALGLSHTYANVRINHVINLWGADFDAEGNLEAIYVTDSDSNASIGMKKYFVGVNSAGKVAISAKEIKEDNIGAQVLGLFTLSTGKDSWEKTN ?
0

Would you mind telling me what Enzyme Activity Endpoint Assay: IgG value was observed for PRT-268 (protein) MVTSVWTKGVTPPTDFIYGEDVLHAPYKAGQGWYDITKLFNGKDDLLCGAATAGNMLHWWFDQNKEQIENYLKKHPEKQKINFNGEQMFDVKEAIDTKDSQLDSKLFDYFKEKAFPNLSTKHLGVFPDHVIDMFINGYRLSLLNHGPTPVKRGSKDPRGGIFDAVFTRGDQSKLLTNRHDLKNKTLKEISDLIKQELTEGKALGISHTYANGRINHVINLWGADFDAEGNLEAIYVTDSDSNPSIGMKKYFVGVNSSGKVAISAKEIEEDNIGAQVLGLFTLSTGQDIWNQTN ?
90

Would you mind telling me what Enzyme Activity Endpoint Assay: IgG value was observed for PRT-508 (protein) MITSVWTKGVTPPTDFIKGEDVFHAPYKAGQGWYDITKTFNGKDDLLCGAATAGNMLHWWFDQNKEEIEAYLKKHPEKQKIMFGDQELLDVRKVINTKDSQTNSALFNYFKDKAFPNLSARRLGVMPDLVLDMFINGYYLNVYKTQTTDVNRTYQTKDRRGGIFDAVFTRGDQSKLLTERHDLKNKTLKEISDLIKQELTEGKALGLSHTYANVRINHVINLWGADFDSNGNLEAIYVTDSDSNASIGMKKYFVGVNSAGKVAISAKEIKEDNIGAQVLGLFTLSTGQDIWNQTNLEHHHHHH ?
0

Would you mind telling me what Enzyme Activity Endpoint Assay: IgG value was observed for PRT-98 (protein) MANQEIRYSEVTPYHVTSVWTKGVTPPAKFTQGEDVFHAPYVANQGWYDITKTFNGKDDLLCGAATAGNMLHWWFDQNKEKIEAYLKKHPDKQKIMFGDQELLDVRKVINTKGDQTNSELFNYFRDKAFPGLSARRLGVMPDLVLDMFINGYYLNVYKTQTTDVNRTYQEKDRRGGIFDAVFTRGDQSKLLTSRHDFKEKNLKEISDLIKKELTEGKALGLSHTYANVRINHVINLWGADFDSNGNLKAIYVTDSDSNASIGMKKYFVGVNSAGKVAISAKEIKEDNIGAQVLGLFTLSTGQDSWNQTN ?
0

Would you mind telling me what Enzyme Activity Endpoint Assay: IgG value was observed for PRT-178 (protein) MANQEIRYSEVTPYHVTSVWTKGVTPPANFTQGEDVFHAPYVANQGWYDITKTFNGKDDLLCGAATAGNMLHWWFDQNKDQIKRYLEEHPEKQKIIFNNQELFDLKAAIDTKNHQLDSKLFEYFKEKAFPYLSTKHLGVFPDHVIDMFINGYRLSLTNHGPTPVKEGSKDPRGGIFDAVFTRGDQSKLLTSRHDFKEKNLKEISDLIKKELTEGKALGLSHTYANVRINHVINLWGADFDSNGNLKAIYVTDSDSNASIGMKKYFVGVNSAGKVAISAKEIKEDNIGAQVLGLFTLSTGQDSWNQTN ?
0

Would you mind telling me what Enzyme Activity Endpoint Assay: IgG value was observed for PRT-170 (protein) MANQEIRYSEVTPYHVTSVWTKGVTPPTDFIKGEDVFHAPYKAHQGWYDITKTFNGKDDLLCGAATAGNMLHWWFDQNKDQIKRYLEEHPEKQKINFNGEQMFDVKEAIDTKNSQLDSKLFEYFKEKAFPYLSTKHLGVFPDHVIDMFINGYRLSLTNHGPTPVKEGSKDPRGGIFDAVFTRGDQSKLLTSRHDFKEKNLKEISDLIKKELTEGKALGLSHTYANVRINHVINLWGADFDSNGNLKAIYVTDSDSNASIGMKKYFVGVNSAGKVAISAKEIKEDNIGAQVLGLFTLSTGQDSWNQTN ?
0

Would you mind telling me what Enzyme Activity Endpoint Assay: IgG value was observed for PRT-186 (protein) MANQEIRYSEVTPYHVTSVWTKGVTPPANFRKIVDGNIAYYHAPYVANQGWYDITKTFNGKDDLLCGAATAGNMLHWWFDQNKDQIKRYLEEHPEKQKINFNGEQMFDVKEAIDTKNHQLDSKLFEYFKEKAFPYLSTKHLGVFPDHVIDMFINGYRLSLTNHGPTPVKEGSKDPRGGIFDAVFTRGDQSKLLTSRHDFKEKNLKEISDLIKKELTEGKALGLSHTYANVRINHVINLWGADFDSNGNLKAIYVTDSDSNASIGMKKYFVGVNSAGKVAISAKEIKEDNIGAQVLGLFTLSTGQDSWNQTN ?
9

Would you mind telling me what Enzyme Activity Endpoint Assay: IgG value was observed for PRT-455 (protein) MITSVWTKGVTPPTDFIKGEDVFHAPYKAGQGWYDITKAFDGGDDLLCGAATAGNMLHWWFDQNKDQIEAYLKEHPEKQKINFNGEQMFDVKEAIDTKDDQTNSELFNYFKEKAFPYLSTKHLGVFPDHVLDMFINGYRLSLTNHGPTPVKRQEKDPRGGIFDAVFGRGDQTKLLTSRHDLKNKTLNEISQLIKQELTEGKALALSHTYANVRINHVINLWGADFDAEGNLEAIYVTDSDSNASIGMKKYFVGVNSAGKVAISAKEIEDDNIGAQVLGLFTLSTGQKIWNKTNLEHHHHHH ?
0
